# TARGET: Ba/F3 cells with EGFR Δ19del/T790M/C797S mutation gene stably overexpressed (Homo sapiens, UniProt P00533, T790M/C797S, cells depend on it, form not given)
# Sequence (P00533 with tags, fused parts or gaps DEL746-750/T790M/C797S, form open): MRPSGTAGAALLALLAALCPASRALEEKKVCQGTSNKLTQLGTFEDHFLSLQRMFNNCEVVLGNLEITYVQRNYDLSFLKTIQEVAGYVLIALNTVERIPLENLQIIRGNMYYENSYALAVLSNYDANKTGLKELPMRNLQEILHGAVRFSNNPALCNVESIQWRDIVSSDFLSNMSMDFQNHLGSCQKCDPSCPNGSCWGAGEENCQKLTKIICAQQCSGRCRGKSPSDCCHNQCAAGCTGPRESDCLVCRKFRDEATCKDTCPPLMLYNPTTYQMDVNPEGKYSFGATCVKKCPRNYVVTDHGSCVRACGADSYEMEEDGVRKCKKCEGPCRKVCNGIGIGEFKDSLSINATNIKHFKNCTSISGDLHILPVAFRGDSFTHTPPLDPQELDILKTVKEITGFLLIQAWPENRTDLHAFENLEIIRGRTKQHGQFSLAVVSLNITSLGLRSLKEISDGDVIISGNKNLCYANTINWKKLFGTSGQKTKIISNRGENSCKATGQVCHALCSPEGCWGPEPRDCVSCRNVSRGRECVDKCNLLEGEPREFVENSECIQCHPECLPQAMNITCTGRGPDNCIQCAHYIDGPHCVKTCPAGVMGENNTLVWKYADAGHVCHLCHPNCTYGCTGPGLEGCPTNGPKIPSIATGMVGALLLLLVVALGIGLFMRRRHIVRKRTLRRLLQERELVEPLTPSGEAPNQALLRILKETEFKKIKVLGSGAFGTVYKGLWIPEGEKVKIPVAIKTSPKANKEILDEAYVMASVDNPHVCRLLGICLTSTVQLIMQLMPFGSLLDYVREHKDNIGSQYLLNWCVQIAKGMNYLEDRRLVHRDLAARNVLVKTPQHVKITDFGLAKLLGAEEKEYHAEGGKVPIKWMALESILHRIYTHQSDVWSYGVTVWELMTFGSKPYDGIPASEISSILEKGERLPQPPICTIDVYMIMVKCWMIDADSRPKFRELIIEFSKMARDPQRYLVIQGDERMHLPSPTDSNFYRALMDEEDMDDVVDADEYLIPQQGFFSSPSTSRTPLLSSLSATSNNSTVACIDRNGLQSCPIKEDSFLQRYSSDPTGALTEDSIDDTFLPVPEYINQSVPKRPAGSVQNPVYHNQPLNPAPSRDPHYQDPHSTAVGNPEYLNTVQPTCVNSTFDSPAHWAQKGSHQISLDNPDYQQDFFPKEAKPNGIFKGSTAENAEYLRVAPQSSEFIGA
# ASSAY INFO: Ba/F3-Δ19del/T790M/C797S cell proliferation assay (CellTiter Glo, 72 hours)
# Assay type: cell-based
# DETAILS: Table 2, read-out: EGFR Δ19del/T790M/C797S IC50
In plain terms, low GI50, meaning strictly below 9 nM, gives 1 (yes), and everything else gives 0 (no).

Query :: Please determine if "COc1cc(Nc2ncc(Br)c(Nc3ccc(-c4cnn(C)n4)cc3P(C)(C)=O)n2)c(C)cc1N1CCOCC1" is below 9 nM in terms of GI50.
Result :: 0 (no)

Query :: And the next one, "CCc1cc(Nc2ncc(Br)c(Nc3ccc(-c4ccccc4F)cc3P(C)(C)=O)n2)c(OC)cc1N1CCC(N2CCOCC2)CC1" ?
Result :: 0 (no)

Query :: And the next one, "CCc1cc(Nc2ncc(Br)c(Nc3ccc(-c4cnn(CC)c4)cc3P(C)(C)=O)n2)c(OC)cc1N1CCC(N2CCN(C)CC2)CC1" ?
Result :: 1 (yes)

Query :: And the next one, "CCc1cc(Nc2ncc(Br)c(Nc3ccc(-c4cnc(OC)nc4)cc3P(C)(C)=O)n2)c(OC)cc1N1CCC(N2CCN(C)CC2)CC1" ?
Result :: 1 (yes)

Query :: And the next one, "CCc1cc(Nc2ncc(Br)c(Nc3ccc(-c4nccs4)cc3P(C)(C)=O)n2)c(OC)cc1N1CCC(N2CCN(C)CC2)CC1" ?
Result :: 0 (no)

----------
# TARGET: Ba/F3 cells with EGFR Δ19del/T790M/C797S mutation gene stably overexpressed (Homo sapiens, UniProt P00533, T790M/C797S, cells depend on it, form not given)
# ASSAY INFO: Ba/F3-Δ19del/T790M/C797S cell proliferation assay (CellTiter Glo, 72 hours)
# Format: cell-based
# DETAILS: Table 2, read-out: EGFR Δ19del/T790M/C797S IC50
QUANTITY MEASURED: GI50 (µM)
State just the number; it will be interpreted in µM.

Query :: Bench note: what GI50 did "COc1cc(Nc2ncc(Br)c(Nc3ccc(-c4cnn(C)n4)c(F)c3P(C)(C)=O)n2)c(C)cc1N1CCOCC1" show?
Result :: 0.0126

Query :: And the next one, "COc1cnn(-c2ccc(Nc3nc(Nc4cc(C)c(N5CCC(N6CCCCC6)CC5)cc4OC)ncc3Br)c(P(C)(C)=O)c2)c1" ?
Result :: 0.0074

Query :: And the next one, "CCc1cc(Nc2ncc(Br)c(Nc3ccc(-c4cnc5c(ccn5C)c4)cc3P(C)(C)=O)n2)c(OC)cc1N1CCC(N2CCN(C)CC2)CC1" ?
Result :: 0.035

Query :: And the next one, "CCc1cc(Nc2ncc(Br)c(Nc3ccc(-c4ccco4)cc3P(C)(C)=O)n2)c(OC)cc1N1CCC(N2CCN(C)CC2)CC1" ?
Result :: 0.0054

Query :: And the next one, "COc1cc(Nc2ncc(Br)c(Nc3ccc(-c4cnn(C)n4)c(F)c3P(C)(C)=O)n2)c(C)cc1N1CCC(N2CCN(C)CC2)CC1" ?
Result :: 0.0026

Query :: And the next one, "CCc1cc(Nc2ncc(Cl)c(Nc3ccc(-c4nccc(OC)n4)cc3P(C)(C)=O)n2)c(OC)cc1N1CCC(N2CCN(C)CC2)CC1" ?
Result :: 0.0296

Query :: And the next one, "CCc1cc(Nc2ncc(Cl)c(Nc3ccc(-c4ccccc4)cc3P(C)(C)=O)n2)c(OC)cc1N1CCC(N2CCN(C)CC2)CC1" ?
Result :: 0.0218

Query :: And the next one, "CCc1cc(Nc2ncc(Br)c(Nc3ccc(-c4cnn(C(C)C)n4)cc3P(C)(C)=O)n2)c(OC)cc1N1CCC(N2CCN(C)CC2)CC1" ?
Result :: 0.0286

Query :: And the next one, "CCOc1cnc(-c2ccc(Nc3nc(Nc4cc(CC)c(N5CCC(N6CCN(C)CC6)CC5)cc4OC)ncc3Br)c(P(C)(C)=O)c2)nc1" ?
Result :: 0.0168

Query :: And the next one, "CCc1cc(Nc2ncc(Br)c(Nc3ccc(-c4cnn(C)c4)c(C)c3P(C)(C)=O)n2)c(OC)cc1N1CCC(N2CCN(C)CC2)CC1" ?
Result :: 0.0076

Query :: And the next one, "CCc1cc(Nc2ncc(Cl)c(Nc3ccc(-c4ncc(OC)cn4)cc3P(C)(C)=O)n2)c(OC)cc1N1CCC(N2CCN(C)CC2)CC1" ?
Result :: 0.0118

Query :: And the next one, "CCc1cc(Nc2ncc(Br)c(Nc3ccc(-c4ccc(C)nc4)cc3P(C)(C)=O)n2)c(OC)cc1N1CCC(N2CCN(C)CC2)CC1" ?
Result :: 0.0276

Query :: And the next one, "CCc1cc(Nc2ncc(Br)c(Nc3ccc(-c4cc(C)n(C)n4)cc3P(C)(C)=O)n2)c(OC)cc1N1CCC(N2CCN(C)CC2)CC1" ?
Result :: 0.0106

Query :: And the next one, CCc1cc(Nc2ncc(Br)c(Nc3ccc(-c4cncc(OC)n4)cc3P(C)(C)=O)n2)c(OC)cc1N1CCC(N2CCN(C)CC2)CC1 [Compound 13] ?
Result :: 0.0405
